- assay method text: viability loss with induced miR-34 in A549 – imaging, A549 dox-inducible miR-34, nuclei and caspase counts, primary screen (AID 1347080)
- condition info: A549 miR-34 inducible, Hoechst nuclei count, 48 h; measured here: total cells with miR-34 induction; stronger effect = lower value
parameter measured: cell count

>>> recorded_measurement("C[C@@H]1C(=O)NC2=Nc3cccc(Cl)c3CN21")
9040
>>> recorded_measurement("Cc1nn(C)cc1-c1ccnc(N2CCCN(c3ccccc3)CC2)n1")
5610
>>> recorded_measurement("c1nc(N2CCOCC2)c2[nH]cnc2n1")
8460

Query molecule follows.
Param item = Nc1ncn(C2O[C@H](CO)[C@@H](O)[C@H]2O)c(=O)n1 (some centres undefined) ; retrieve measured cell count.
2060

----------
- assay method text: viability loss with induced miR-34 in A549 – imaging, A549 dox-inducible miR-34, nuclei and caspase counts, primary screen (AID 1347080)
- condition info: A549 miR-34 inducible, Hoechst nuclei count, 48 h; measured here: total cells with miR-34 induction; stronger effect = lower value
Entry class follows cell count: bin A = under 7000, bin B = from 7000 up to 8000, bin C = 8000 and over

Please review the following examples before continuing.
>>> class_label("CCCCCC(=O)CC[C@@H]1[C@@H](C/C=C\\CCCC(=O)O)[C@@H](O)C[C@H]1O")
"bin A"
>>> class_label("Cc1cc(C)n(CCCNc2ncc(C)c(-c3cnn(C)c3)n2)n1")
"bin C"
>>> class_label("Cc1cc2c(F)c(Oc3ncnn4cc(OCC(C)O)c(C)c34)ccc2[nH]1 (centres undefined)")
"bin A"

Record CC(C)NCC(C(=O)N1CCN(c2ncnc3c2C(C)CC3O)CC1)c1ccc(Cl)cc1 (centres undefined) — which class?
bin B

Record `COc1cccc2c1[C@@H]1CN(CCCCn3c(=O)[nH]c4c(sc5ncc(-c6ccccc6)nc54)c3=O)C[C@@H]1CO2` — which class?
bin A

Record CC(CS)C(=O)N1CCCC1C(=O)O (centres undefined) — which class?
bin C

----------
Each entry below carries its recorded period change.
- assay method text: compounds altering circadian rhythm period length – cell-based, LOPAC library, luminescence reporter (AID 2774);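 also: values are relative to mean of DMSO wells on each plate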
- condition info: circadian reporter cells, at 7 µM, actives lie on both sides
Active and inactive are the calls of the source. The rule behind the calls is not given here.

Observe how each entry below is paired with its result.
>>> recorded_measurement("[N-]=[N+]=Nc1ccc(C(=O)CSC[C@H](NC(=O)CC[C@H](N)C(=O)O)C(=O)NCC(=O)O)cc1")
"0 h (inactive)"
>>> recorded_measurement("CC(N)(C(=O)O)c1ccc(C(=O)O)cc1 (stereo not given)")
"-0.11 h (inactive)"
>>> recorded_measurement("N=C(N)c1ccc(OCCCCCOc2ccc(C(=N)N)cc2)cc1 (tested in a mixture with another compound)")
"0.16 h (inactive)"
>>> recorded_measurement("N=C(N)c1ccc(N)cc1")
"-0.005 h (inactive)"
>>> recorded_measurement("CC(C)COC(=O)OCN1C(=O)CN(CCN2CC(=O)N(COC(=O)OCC(C)C)C(=O)C2)CC1=O")
"-0.045 h (inactive)"

Param item = `Cc1nc(N=Nc2ccc(C(=O)O)cc2)c(COP(=O)(O)O)c(C=O)c1O` ; retrieve measured period change.
-0.16 h (inactive)

Param item = `CCN1CCC[C@H]1CNC(=O)c1c(OC)ccc(I)c1O` ; retrieve measured period change.
0.025 h (inactive)

----------
- assay method text: viability loss with induced miR-34 in A549 – imaging, A549 dox-inducible miR-34, nuclei and caspase counts, primary screen (AID 1347080)
- condition info: A549 miR-34 inducible, Hoechst nuclei count, 48 h; measured here: total cells without miR-34 induction
parameter measured: cell count
Output: the number by itself.

>>> recorded_measurement("Cc1ccc2c(C(=O)N(C)C(C)C)cc(-c3cnc(C(C)C)nc3)nc2c1")
7940
>>> recorded_measurement("Clc1cnccn1")
9770
>>> recorded_measurement("Nc1nc(-c2ccc(O)cc2)cs1")
8730
>>> recorded_measurement("COc1cccc2ccc(-c3nnc4ccccn34)nc12")
8400
>>> recorded_measurement("CCOC(=O)N1c2ccc(C(F)(F)F)cc2C(N(Cc2cc(C(F)(F)F)cc(C(F)(F)F)c2)C(=O)OC)CC1CC (stereo not given)")
8920
>>> recorded_measurement("CCN(Cc1nccn1C)C(=O)c1cc(-c2cnc(C)nc2)nc2cc(F)ccc12")
10200
>>> recorded_measurement("Cc1cc(OCCCS(C)(=O)=O)cc(C)c1-c1cccc(COc2ccc3c(c2)OCC3CC(=O)O)c1 (stereo not given)")
8070
>>> recorded_measurement("O=C(O)C=Cc1ccccc1O")
9590

Param item = C[C@]12CC[C@H]3c4ccc(O)cc4CC[C@H]3[C@@H]1CCC2O (stereo not given in full) ; retrieve measured cell count.
8310

Param item = CCN1CCCC1CNC(=O)c1c(O)c(Cl)cc(Cl)c1OC (stereo not given) ; retrieve measured cell count.
9480

Param item = COC1CC2CCC(C)[C@@](O)(O2)C(=O)C(=O)N2CCCCC2C(=O)OC(C(C)CC2CCC(O)C(OC)C2)CC(=O)C(C)C=C(C)C(O)C(OC)C(=O)C(C)CC(C)C=CC=CC=C1C (stereo not given in full) ; retrieve measured cell count.
4090

----------
- assay method text: viability loss with induced miR-34 in A549 – imaging, A549 dox-inducible miR-34, nuclei and caspase counts, primary screen (AID 1347080)
- condition info: A549 miR-34 inducible, Hoechst nuclei count, 48 h; measured here: total cells without miR-34 induction
parameter measured: cell count
Output: the number by itself.

Observe how each entry below is paired with its result.
>>> recorded_measurement("Nc1nc(=O)n(C2CSC(CO)O2)cc1F (stereo not drawn)")
8920
>>> recorded_measurement("O=[N+]([O-])c1ccc(-c2ccn[nH]2)cc1")
9070

Param item = `CC1(C)[C@@H](O)CC[C@@]2(C)[C@H]1CC[C@]1(C)[C@H]2C(=O)C=C2[C@H]3C[C@@](C)(C(=O)O)CC[C@]3(C)CC[C@]21C` ; retrieve measured cell count.
8800

----------
- assay method text: viability loss with induced miR-34 in A549 – imaging, A549 dox-inducible miR-34, nuclei and caspase counts, primary screen (AID 1347080)
- condition info: A549 miR-34 inducible, Hoechst nuclei count, 48 h; measured here: total cells without miR-34 induction
Entry class follows cell count: class 0: < 9000; class 1: ≥ 9000 and < 10000; class 2: ≥ 10000

Please review the following examples before continuing.
>>> class_label("COc1cc(F)ccc1C(=O)N1CCc2[nH]nc(Cc3ccccc3)c2C1")
"class 0"
>>> class_label("CN1CCN(c2ncnc3sccc23)CC1=O")
"class 2"
>>> class_label("CNc1ncnc2c1ncn2[C@@H]1O[C@H](CO)[C@H](O)C1O (stereo partly drawn)")
"class 1"
>>> class_label("COc1cc(CC(CO)C(CO)Cc2ccc(O)c(OC)c2)ccc1O (stereo not drawn)")
"class 0"
>>> class_label("CCCCCCCCCCCCCCCCCCc1ccc(C(=O)/C=C/C(=O)O)cc1")
"class 0"

Record `Cc1ccc2c(-c3ncnc4scc(C)c34)cccc2n1` — which class?
class 0

Record `Cn1c(-c2ccc3c(c2)OCO3)cc(=O)c2ccccc21` — which class?
class 1

Record `CC(=O)N[C@H](C(=O)O)C(C)(C)SN=O` — which class?
class 2

Record O=C(c1ccc(F)cc1)N1CCCC(c2nc(-c3ccc(F)cc3)no2)C1 (stereo not drawn) — which class?
class 1

----------
- assay method text: CRL1545 cell growth, single agent and combined, cisplatin and BGB IC20 combos (AID 1671464);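 also: cells exposed to compound for 96 hours before readout; 0% = vehicle DMSO and 100% = high DMSO killing control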
- condition info: CRL1545 osteosarcoma cells, at 0.5 µM
Calls of active or inactive are those of the source. Cut-off read from the data, not from the text of the source: active = inhibition above about 80%; inactive = the rest. Non-standard residues stand in square brackets, D forms with d. Residues, ends and D or L forms follow the SMILES beside them. Dolaproine = CO[C@@H]([C@@H]1CCCN1)[C@@H](C)C(=O)O; Dil = CC[C@H](C)[C@H](NC)[C@@H](CC(=O)O)OC; NMeV = CN[C@H](C(=O)O)C(C)C
Allowed answers: YES for active, NO for inactive

>>> class_label("C[C@@H]1COCCN1c1cc(C2(S(C)(=O)=O)CC2)nc(-c2cccc3[nH]ccc23)n1")
"NO"
>>> class_label("Nc1ccn(C2CCC(CO)O2)c(=O)n1 (stereo not given)")
"NO"
>>> class_label("O=C(CCCCCCC(=O)NO)NO")
"NO"
>>> class_label("NC(=S)NN=Cc1ncccc1N")
"NO"
>>> class_label("CC(=O)C1(O)Cc2c(O)c3c(c(O)c2C(OC2CC(N)C(O)C(C)O2)C1)C(=O)c1ccccc1C3=O (stereo not given)")
"YES"

Name the outcome recorded for O=C(CCSc1nc2ccccc2c(=O)[nH]1)NC1CCC(c2nnc(-c3ccccc3)o2)CC1 (stereo not given) in the assay.
NO

Name the outcome recorded for CC[C@H](C)[C@@H]([C@@H](CC(=O)N1CCC[C@H]1[C@H](OC)[C@@H](C)C(=O)N[C@@H](Cc1ccccc1)C(=O)O)OC)N(C)C(=O)[C@@H](NC(=O)[C@@H](NC)C(C)C)C(C)C (H-[NMeV]V[Dil][Dolaproine]F-OH) in the assay.
NO

Values compiled from PubChem BioAssay.
